assay.overview: Efflux ratio of apparent permeability from basolateral to apical side over apical to basolateral side in dog MDCK2-MDR1 cells incubated for 120 mins by UV-visible spctrophotometry
Format: ADME, cell-based, Canis lupus familiaris
reported.conditions: MDCK-MDR1
measure.name: efflux ratio at 2 h
// no unit, no text: just the number

input: For `COc1ccccc1OCCNCC1COC(c2ccccc2)(c2ccccc2)OC1.O=C(O)C(=O)O` , what is its reported efflux ratio at 2 h?
output: 0.49

* * *

Quick record: Ki, Alpha-1B adrenergic receptor (Homo sapiens, UniProt P35368).
# value in nM; strip the unit string

{"columns": ["compound", "result.value"],
 "data": [
  ["COc1ccccc1OCCNCC[C@H]1CO[C@H](C(c2ccccc2)c2ccccc2)O1 (relative stereo)", 30.9],
  ["c1ccc(OCCNCCC2COC(c3ccccc3)(c3ccccc3)O2)cc1 (stereo not drawn)", 95.5],
  ["c1ccc(OCCNCC2CCOC(c3ccccc3)(c3ccccc3)O2)cc1 (stereo not drawn)", 56.2],
  ["OCC(CNCCOc1ccccc1)OC(c1ccccc1)c1ccccc1 (stereo not drawn)", 2290],
  ["c1ccc(OCCNCC2COC(c3ccccc3)(c3ccccc3)OC2)cc1", 282]
]}

input: Form field - read-out: Ki; system: Alpha-1B adrenergic receptor (Homo sapiens, UniProt P35368); submitted item: COc1ccccc1OCCNCCC1COC(c2ccccc2)(c2ccccc2)O1 (stereo not drawn)
Sequence (P35368 whole entry): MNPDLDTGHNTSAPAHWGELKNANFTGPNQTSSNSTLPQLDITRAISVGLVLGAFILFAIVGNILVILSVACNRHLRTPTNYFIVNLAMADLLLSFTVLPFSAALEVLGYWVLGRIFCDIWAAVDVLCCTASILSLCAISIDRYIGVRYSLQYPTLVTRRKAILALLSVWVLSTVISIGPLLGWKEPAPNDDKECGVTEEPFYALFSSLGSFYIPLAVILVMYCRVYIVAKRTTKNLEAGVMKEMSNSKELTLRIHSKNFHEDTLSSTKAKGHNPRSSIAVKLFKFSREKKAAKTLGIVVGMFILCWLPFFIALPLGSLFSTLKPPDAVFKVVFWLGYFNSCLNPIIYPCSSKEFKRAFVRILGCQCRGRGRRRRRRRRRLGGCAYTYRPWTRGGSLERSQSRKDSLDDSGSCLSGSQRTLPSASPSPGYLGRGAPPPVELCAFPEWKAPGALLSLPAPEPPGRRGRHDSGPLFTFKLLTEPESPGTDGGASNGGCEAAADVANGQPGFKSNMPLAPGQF
output: 14.8

input: Could you share what Ki was measured for `COc1ccccc1OCCNCC1COC(c2ccccc2)(c2ccccc2)OC1.O=C(O)C(=O)O` , tested on Alpha-1B adrenergic receptor (Homo sapiens, UniProt P35368)?
output: 31.6

input: // fetch Alpha-1B adrenergic receptor (Homo sapiens, UniProt P35368) Ki for COc1ccccc1OCCNC[C@@H]1CO[C@H](C(c2ccccc2)c2ccccc2)O1 (relative stereo)
output: 37.2
